Just for reference, the RNAGym collection of RNA variant scans (doi:10.1093/molbev/msab373) is where these values come from.

B1: Azoarcus group I ribozyme (parent)
chain: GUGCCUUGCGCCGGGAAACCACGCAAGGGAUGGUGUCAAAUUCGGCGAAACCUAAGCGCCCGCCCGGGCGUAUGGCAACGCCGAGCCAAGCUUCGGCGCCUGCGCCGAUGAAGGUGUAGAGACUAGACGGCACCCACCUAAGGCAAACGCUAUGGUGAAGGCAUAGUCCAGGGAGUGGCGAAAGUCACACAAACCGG

variants of: B1; test: reverse-splicing fitness (ratio to wild type); higher = more active; in vitro selection; Mg2+ level not given
Entries are grouped by reverse-splicing fitness into these classes: low = under 0.007, moderate = from 0.007 up to 0.03, high = 0.03 and over

>  <mutant>
A111U A120C A145U C150G

>  <categoryLabel>
high

$$$$
>  <mutant>
C82G A111U A120U A145C C150A U176A

>  <categoryLabel>
low

$$$$
>  <mutant>
A111U A120G A145G C169U U176A

>  <categoryLabel>
high

$$$$
>  <mutant>
C82G A111C A120G C150G C169U U176G

>  <categoryLabel>
low

$$$$
>  <mutant>
A111U A120U A145C C169G

>  <categoryLabel>
high

$$$$
>  <mutant>
A120C A145G C150U U176C

>  <categoryLabel>
high

$$$$
>  <mutant>
C82U A120U A145G C150U C169A U176G

>  <categoryLabel>
low

$$$$
>  <mutant>
C82G A111G A145C C169U

>  <categoryLabel>
moderate

$$$$
>  <mutant>
C82U C150U C169U U176A

>  <categoryLabel>
moderate

$$$$
>  <mutant>
C82A A111U A120U A145C C150U C169A

>  <categoryLabel>
low

$$$$
>  <mutant>
C82U A111G A120G A145G C169A U176C

>  <categoryLabel>
moderate

$$$$
>  <mutant>
C82G A111G C150G C169A U176A

>  <categoryLabel>
moderate

$$$$
